System: HCC1569
ASSAY_PROTOCOL: cell number relative to DMSO (% of DMSO); higher = more cells (less growth inhibition / toxicity)
MEASUREMENT_SETUP: concentration: 10 µM; 24 h
# if value of cell number reaches 100, tag y; if it stays below, tag n

The examples below pair each entry with its known result.
INSERT INTO measurements (compound, target_or_test_system, qualitative_label) VALUES
  ('CN1CCc2ccccc2Cc2[nH]c3ccccc3c2CC1', 'HCC1569', 'y'),
  ('CC(C)n1cnc2c(NCc3ccccc3)nc(NCCO)nc21 [N9-Isopropylolomoucine]', 'HCC1569', 'n'),
  ('CC(=O)OC12COC1CC(O)C1(C)C(=O)C(O)C3=C(C)C(OC(=O)C(O)C(NC(=O)OC(C)(C)C)c4ccccc4)CC(O)(C(OC(=O)c4ccccc4)C21)C3(C)C (stereo not given) [Docetaxil]', 'HCC1569', 'n'),
  ('CCCCCCCCCCCCCCCC(=O)NCC(COP(=O)([O-])OCC[N+](C)(C)C)OCC (racemic) [rac-2-Ethoxy-3-hexadecanamido-1-propylphosphocholine]', 'HCC1569', 'n'),
  ('CCCCCC(O)C=CC1OC(O)CC(O)C1CC=CCCCC(=O)O (stereo not given) [Thromboxane B2]', 'HCC1569', 'n');

Q: Hi team, for CC(C)NCC(O)c1ccc(O)c(O)c1.Cl (racemic) , is the recorded cell number at or above 100?
A: y

###

System: HCC1569
ASSAY_PROTOCOL: H1.0 immunofluorescence intensity relative to DMSO (% of DMSO); higher = stronger H1.0 induction, active = 140 or more
MEASUREMENT_SETUP: concentration: 10 µM; 24 h
Would you mind answering with one of these outcomes? active, inactive

INSERT INTO assay_data (molecule, target_or_test_system, qualitative_label) VALUES
  ('COc1ccc(C2CC(=O)c3c(O)cc(OC4OC(CO)C(O)C(O)C4OC4OC(C)C(O)C(O)C4O)cc3O2)cc1O (stereo not given) [Neohesperidin]', 'HCC1569', 'inactive'),
  ('COc1c(OCCCCN2CCN(C)CC2)cc(O)c2c(=O)cc(-c3ccccc3)oc12', 'HCC1569', 'inactive'),
  ('COC(=O)C1C2CC3c4[nH]c5cc(OC)ccc5c4CCN3CC2CC(OC(=O)c2cc(OC)c(OC)c(OC)c2)C1OC (stereo not given) [Reserpine]', 'HCC1569', 'inactive');

Q: What did this assay record as the result for Nc1cccc(-c2cc3c(Oc4cccc(O)c4)ncnc3[nH]2)c1 [GSK3b Inhibitor XII, TWS119] ?
A: active

Q: What do we get for CCOC(=O)C1=CC(OC(CC)CC)C(NC(C)=O)C(N)C1 (stereo not given) [Oseltamivir] ?
A: inactive

Q: Now try CN(C)CCC=C1c2ccccc2CCc2ccccc21.Cl [Amitriptyline hydrochloride] .
A: inactive

###

Test system: TDF
ASSAY_PROTOCOL: cell number relative to DMSO (% of DMSO); higher = more cells (less growth inhibition / toxicity)
MEASUREMENT_SETUP: concentration: 10 µM; 24 h
Parameter threshold = 100. Response is Y when cell number meets or exceeds it, else N.

Worked examples follow.
INSERT INTO results (molecule, target_or_test_system, qualitative_label) VALUES
  ('O=C(O)CC/C=C\C[C@H]1CO[C@@H](c2ccccc2Cl)O[C@H]1c1ccccc1O', 'TDF', 'N'),
  ('CC(=O)OCC1=C(C(=O)[O-])N2C(=O)C(NC(=O)Cc3cccs3)C2SC1.[Na+] (stereo not drawn) [Cephalothin sodium]', 'TDF', 'Y'),
  ('CC[C@H](C)C(=O)O[C@H]1C[C@H](O)C=C2C=C[C@H](C)[C@H](CC[C@@H](O)C[C@@H](O)CC(=O)[O-])[C@H]21.[Na+]', 'TDF', 'N'),
  ('Cl.Nc1cc(Cl)c(NC2=NCCN2)c(Cl)c1 [p-Aminoclonidine hydrochloride]', 'TDF', 'Y'),
  ('CCC(C)C(=O)OC1CC(C)C=C2C=CC(C)C(CCC3CC(O)CC(=O)O3)C21 (stereo not drawn) [Lovastatin]', 'TDF', 'N');

Q: Answer whether cell number of Cl.O=C(O)C1CCCN(CCC=C(c2ccccc2)c2ccccc2)C1 (stereo not drawn) is greater than or equal to 100.
A: N

###

Tested on: HCC1569
ASSAY_PROTOCOL: H1.0 immunofluorescence intensity relative to DMSO (% of DMSO); higher = stronger H1.0 induction, active = 140 or more
MEASUREMENT_SETUP: concentration: 10 µM; 24 h
Entry note: the call must match one of active, inactive

Answered cases to consult:
INSERT INTO assay_data (compound, qualitative_label) VALUES
  ('CON=C(C(=O)NC1C(=O)N2C(C(=O)O)=C(COC(C)=O)CSC12)c1csc(N)n1 (stereo not drawn)', 'inactive'),
  ('O.O=P(O)(O)C(O)(Cn1ccnc1)P(=O)(O)O', 'inactive');

Q: Entry CCC=CCC=CCC=CCC=CCC=CCCCC(=O)O [Eicosapentaenoic acid] : call = ?
A: inactive

Q: Check CCCCCCCCCCCCCCCCC(=O)O too.
A: inactive

Q: // next record CCCCCCCCCCCCCCCCCCOP(=O)([O-])OC1CC[N+](C)(C)CC1 [1,1-dimethylpiperidinium-4-yl octadecyl phosphate]
A: inactive

Q: Queued: COC(=O)C1=C(C)NC(C)=C([N+](=O)[O-])C1c1ccccc1C(F)(F)F (racemic)
A: inactive

Q: And O=c1[nH]c2ccccc2n1CCN1CCN(c2cccc(C(F)(F)F)c2)CC1 ?
A: inactive

Q: Now consider CCC1(c2ccccc2)C(=O)NCNC1=O and answer again.
A: inactive

###

System: TDF
ASSAY_PROTOCOL: cell number relative to DMSO (% of DMSO); higher = more cells (less growth inhibition / toxicity)
MEASUREMENT_SETUP: concentration: 10 µM; 24 h
QUANTITY_KIND: cell number
Would you mind answering with just the numeric figure?

INSERT INTO results (compound, target_or_test_system, quantitative_readout) VALUES
  ('O=C1CCCC(=O)C1C(=O)c1ccc(C(F)(F)F)cc1[N+](=O)[O-] [2-[2-nitro-4-(trifluoromethyl)benzoyl]-1,3-cyclohexanedione]', 'TDF', 104),
  ('CCCCCC=CCC=CC=CC=CC(SCC(NC(=O)CCC(N)C(=O)O)C(=O)NCC(=O)O)C(O)CCCC(=O)O (stereo not given)', 'TDF', 92.2),
  ('Cl.N=c1c[n+](N2CCOCC2)[n-]o1 [3-Morpholinosydnonimine hydrochloride]', 'TDF', 108),
  ('CN(C)CCC(c1ccc(Br)cc1)c1ccccn1.O=C(O)C=CC(=O)O (single isomer, unassigned; (+)) [(+)-Brompheniramine maleate]', 'TDF', 79.5);

Shifting focus to the compound that follows.
Q: cell number of COc1cc2c(Nc3ccc(Br)cc3F)ncnc2cc1OCC1CCN(C)CC1 on TDF?
A: 65.4

###

Tested on: HCC1569
ASSAY_PROTOCOL: H1.0 immunofluorescence intensity relative to DMSO (% of DMSO); higher = stronger H1.0 induction, active = 140 or more
MEASUREMENT_SETUP: concentration: 10 µM; 24 h
QUANTITY_KIND: H1.0 immunofluorescence intensity
Give the value as a plain number.

Q: Reported H1.0 immunofluorescence intensity for NC(Cc1ccc(O)c(O)c1)C(=O)O (configuration not stated) [Levodopa] : what is it?
A: 96.9

Q: // query: O=P(O)(O)C(Cl)(Cl)P(=O)(O)O [Clodronic acid]
A: 102

Q: Here is the next compound: CC(CSC(=O)c1ccccc1)C(=O)N1CC(Sc2ccccc2)CC1C(=O)[O-].CC(CSC(=O)c1ccccc1)C(=O)N1CC(Sc2ccccc2)CC1C(=O)[O-].[Ca+2] (configuration not stated)
A: 95.4

###

Test system: HCC1569
ASSAY_PROTOCOL: cell number relative to DMSO (% of DMSO); higher = more cells (less growth inhibition / toxicity)
MEASUREMENT_SETUP: concentration: 10 µM; 24 h
Quick rule: cell number of at least 100 means Fulfilled, below that means Not fulfilled.

Example entries begin here.
INSERT INTO measurements (compound, qualitative_label) VALUES
  ('C=CC(C)(C=Cc1ccc(O)cc1)CCC=C(C)C (configuration not stated) [Bakuchiol]', 'Not fulfilled'),
  ('COc1ccc(-c2coc3cc(O)cc(O)c3c2=O)cc1 [Biochanin A]', 'Fulfilled');

Q: # check: cell number of CC(=O)c1ccc(NC2=C(Cl)C(=O)c3ccccc3C2=O)cc1 [2-(4-acetylanilino)-3-chloronaphthoquinone] is greater than or equal to 100
A: Not fulfilled

Q: Could you do the same for Cc1ccc([N+](=O)[O-])cc1S(=O)(=O)N(C)N=Cc1cnc2ccc(Br)cn12 , please?
A: Not fulfilled

Q: Consider next the compound O=c1ccc2ccc(O)c(O)c2o1 [Daphnetin] in the same way.
A: Fulfilled

Q: Then this compound: O=C(O)C1CCCNC1 (racemic)
A: Fulfilled

Q: # repeat for CN1CCN(CCCN2c3ccccc3Sc3ccc(C(F)(F)F)cc32)CC1.Cl.Cl [Trifluoperazine.2HCl]
A: Not fulfilled
